Test system: adenovirus type 7 (HAdV7)
Assay: Plaque assay, antiviral activity against adenovirus type 7
Assay type: cell-based
Settings: nontoxic dose of compound; average of three independent measurements
# mean % of reduction, adenovirus type 7 annotations
Just the number in %, nothing appended.

Consider the reported mean % of reduction, adenovirus type 7 for these compounds:
INSERT INTO assay_data (compound, unit_annotation, measured) VALUES
  ('CCSC(SCC)=C(C#N)c1nc2ccccc2s1', '%', 30.0),
  ('CCOC(=O)c1cc(C#N)c(=O)n(NS(=O)(=O)c2ccccc2)c1N [15c]', '%', 36.7),
  ('CSc1c(-c2nc3ccccc3s2)c(N)n(NS(=O)(=O)c2ccc(C)cc2)c(=O)c1C#N', '%', 20.0),
  ('Cc1ccc(S(=O)(=O)Nn2c(N)c(C#N)cc(C#N)c2=O)cc1 [15b]', '%', 13.3),
  ('CCSc1c(-c2nc3ccccc3s2)c(N)n(NS(=O)(=O)c2ccccc2)c(=O)c1C#N', '%', 10.0);

Lookup: Entry CSc1c(-c2nc3ccccc3[nH]2)c(N)n(NS(=O)(=O)c2ccccc2)c(=O)c1C#N [13a] , system adenovirus type 7 (HAdV7): what mean % of reduction, adenovirus type 7 was measured?
Found: 10.0

Lookup: Entry Nc1n[nH]c2c(-c3nc4ccccc4s3)c(N)n(NS(=O)(=O)c3ccccc3)c(=O)c12 , system adenovirus type 7 (HAdV7): what mean % of reduction, adenovirus type 7 was measured?
Found: 10.0

Lookup: Entry CCOC(=O)c1cc(C#N)c(=O)n(NS(=O)(=O)c2ccc(C)cc2)c1N [15d] , system adenovirus type 7 (HAdV7): what mean % of reduction, adenovirus type 7 was measured?
Found: 30.0
